Tested on: Staphylococcus aureus MW2 delta-mecA (mecA-)
test.name: IC50 (growth, competition assay)
condition.details: fluorescent label: DsRed; cefoxitin: subinhibitory
recorded.endpoint: IC50 (µM)
Answers are plain numbers, in µM.

Solved entries:
molecule=O=C(O)Cc1cc(I)c(Oc2ccc(O)c(I)c2)c(I)c1 recorded_endpoint=IC50 value_observed=11.1
molecule="CC[C@H]1OC(=O)[C@H](C)[C@@H](O[C@H]2C[C@@](C)(OC)[C@@H](O)[C@H](C)O2)[C@H](C)[C@@H](O[C@@H]2O[C@H](C)C[C@H](N(C)C)[C@H]2O)[C@](C)(O)C[C@@H](C)CN(C)[C@H](C)[C@@H](O)[C@]1(C)O [Azithromycin (Zithromax)]" recorded_endpoint=IC50 value_observed=0.827
molecule=Clc1ccc(CO/N=C(\Cn2ccnc2)c2ccc(Cl)cc2Cl)c(Cl)c1 recorded_endpoint=IC50 value_observed=30.4

Hey, can you go through the list below and give me IC50 for every item?
1. Oc1cc2c(cc1O)CN(C(=S)NCCc1ccc(Cl)cc1)CCC2 [Capsazepine]
2. O=C(O[C@H]1CN2CCC1CC2)N1CCc2ccccc2[C@@H]1c1ccccc1

Result:
1. 34.5
2. 31.8

---

Test system: Staphylococcus aureus MW2 delta-mecA (mecA-)
test.name: IC50 (growth, competition assay)
condition.details: fluorescent label: DsRed; cefoxitin: subinhibitory
pIC50: −log10 of the molar value.
recorded.endpoint: pIC50

compound=O=C(Nc1ccccc1)Nc1ccc(-c2ccc(C(=O)[C@@H]3CCC[C@H]3C(=O)O)cc2)cc1 value_observed="> 5.01"

Hey, can you go through the list below and give me pIC50 for every item?
1. CC1CCc2cc(F)cc3c(=O)c(C(=O)O)cn1c23 (centres undefined)
2. CCCCCCCCCCCCC[N+](C)(C)Cc1ccccc1
3. C[C@H]1COc2c(C3(N)CC3)c(F)cc3c(=O)c(C(=O)O)cn1c23
4. CC[C@@H](C(=O)[C@@H](C)[C@@H](O)[C@H](C)CCc1ccc(C)c(O)c1C(=O)O)[C@H]1O[C@](CC)([C@H]2CC[C@](O)(CC)[C@H](C)O2)C[C@@H]1C

Result:
> 5.01
> 5.01
> 5.01
> 5.01

Hey, can you go through the list below and give me pIC50 for every item?
1. O=c1c2ccccc2[se]n1-c1ccccc1
2. Cc1cc(N)c2ccccc2[n+]1CCCCCCCCCC[n+]1c(C)cc(N)c2ccccc21 [Dequalinium Chloride]
3. CO[C@H]1/C=C/O[C@@]2(C)Oc3c(C)c(O)c4c(O)c(c(/C=N/N5CCN(C6CCCC6)CC5)c(O)c4c3C2=O)NC(=O)/C(C)=C\C=C\[C@H](C)[C@H](O)[C@@H](C)[C@@H](O)[C@@H](C)[C@H](OC(C)=O)[C@@H]1C
4. CN[C@@H]1[C@@H](O)[C@@H](O[C@@H]2[C@@H](O)[C@H](O[C@H]3O[C@H]([C@@H](C)O)[C@@H](O)[C@H](O)[C@H]3N)[C@@H](N)C[C@H]2N)OC[C@]1(C)O

Result:
1: > 5.01; 2: > 5.01; 3: > 6.30; 4: > 5.01

---

Test system: Staphylococcus aureus MW2 (mecA+)
test.name: IC50 (growth, competition assay)
condition.details: fluorescent label: DsRed; cefoxitin: subinhibitory
Structures can show the parent of a compound that is named as a salt.
recorded.endpoint: pIC50
Give bare numbers, as −log10 of the molar value.

Solved entries:
compound="CN(C)c1ccc(C(=C2C=CC(=[N+](C)C)C=C2)c2ccc(N(C)C)cc2)cc1 [Crystal violet]" recorded_endpoint=pIC50 value_observed=6.16
compound=O=C1C(Cl)=C(Cl)C(=O)C(Cl)=C1Cl recorded_endpoint=pIC50 value_observed=4.17
compound="CCN1CCN(C(=O)N[C@@H](C(=O)N[C@@H]2C(=O)N3C(C(=O)O)=C(CSc4nnnn4C)CS[C@H]23)c2ccc(O)cc2)C(=O)C1=O [Cefoperazone (Cefobid)]" recorded_endpoint=pIC50 value_observed=5.33
compound=Cc1cnc(-c2ccccc2C(C)C)nc1NCc1ccc(-n2ccnn2)cc1 recorded_endpoint=pIC50 value_observed=4.45

Hey, can you go through the list below and give me pIC50 for every item?
1. C[C@H](Cc1ccc(O)c(O)c1)[C@@H](C)Cc1ccc(O)c(O)c1
2. CC1CC(OC(=O)C(O)c2ccccc2)CC(C)(C)C1 (stereo unspecified)
3. CN(C)C(=O)C(CCN1CCC(O)(c2ccc(Cl)cc2)CC1)(c1ccccc1)c1ccccc1 [Loperamide hydrochloride]

Result:
1. 4.48
2. 4.35
3. 3.99

Hey, can you go through the list below and give me pIC50 for every item?
1. CC(=O)Oc1c2c(c(CC=C(C)C)c3c1C(=O)C1=C[C@@H]4CC5C(C)(C)OC(C/C=C(\C)C(=O)O)(C4=O)[C@@]15O3)OC(C)(CCC=C(C)C)C=C2 (stereo partly specified)
2. O=C(Nc1ncc(SCCN2CCCC2)s1)[C@]1(c2ccc(S(=O)(=O)C3CC3)cc2)C[C@H]1C1CCCCC1
3. CC1(C)S[C@@H]2[C@H](NC(=O)[C@H](N)c3ccc(O)cc3)C(=O)N2[C@H]1C(=O)O [AMOXIL]

Result:
4.87
3.95
3.87

---

Tested on: Staphylococcus aureus MW2 delta-mecA (mecA-)
test.name: IC50 (growth, competition assay)
condition.details: fluorescent label: DsRed; cefoxitin: subinhibitory
pIC50: −log10 of the molar value.
recorded.endpoint: pIC50

Solved entries:
molecule="CO[C@H]1/C=C/O[C@@]2(C)Oc3c(C)c(O)c4c(c3C2=O)C2=NC3(CCN(CC(C)C)CC3)NC2=C(NC(=O)/C(C)=C\\C=C\\[C@H](C)[C@H](O)[C@@H](C)[C@@H](O)[C@@H](C)[C@H](OC(C)=O)[C@@H]1C)C4=O [Rifabutin]" recorded_endpoint=pIC50 value_observed="> 6.30"
molecule="Cc1onc(-c2c(Cl)cccc2Cl)c1C(=O)N[C@@H]1C(=O)N2[C@@H]1SC(C)(C)[C@@H]2C(=O)O [DYNAPEN]" recorded_endpoint=pIC50 value_observed="> 5.01"
molecule="CCOC(=O)C1=C(C)NC(C)=C(C(=O)OC)C1c1cccc(Cl)c1Cl (centres undefined) [Felodipine]" recorded_endpoint=pIC50 value_observed="> 5.01"

Now examine the next entry.
Request: Which pIC50 reading was recorded for the molecule CCCCCCCc1ccc(CCc2cccc(O)c2C(=O)O)cc1 [MG 149] ?
Result: > 5.01

---

System: Staphylococcus aureus MW2 (mecA+)
test.name: IC50 (growth, competition assay)
condition.details: fluorescent label: DsRed; cefoxitin: subinhibitory
Where a name gives a salt, the structure may show the parent alone.
recorded.endpoint: IC50

compound=C=C1/C(=C\C=C2/CCC[C@]3(C)[C@@H]([C@H](C)CCCC(C)C)CC[C@@H]23)C[C@@H](O)C[C@@H]1O recorded_endpoint=IC50 value_observed="> 150 µM"
compound=CCC(=O)Nc1cccc(Oc2nc(Nc3ccc(N4CCN(C)CC4)cc3OC)ncc2Cl)c1 recorded_endpoint=IC50 value_observed="> 150 µM"
compound="CN(C)c1ccc(O)c2c1C[C@H]1C[C@H]3[C@H](N(C)C)C(O)=C(C(N)=O)C(=O)[C@@]3(O)C(O)=C1C2=O [SOLODYN]" recorded_endpoint=IC50 value_observed="< 9.85 µM"

Request: Which IC50 reading was recorded for the compound CN(C)[C@@H]1C(=O)C(C(N)=O)=C(O)[C@@]2(O)C(=O)C3=C(O)c4c(O)ccc(Cl)c4[C@@H](O)[C@H]3C[C@@H]12 [Demeclocycline hydrochloride] ?
Result: < 9.85 µM

---

Test system: Staphylococcus aureus MW2 delta-mecA (mecA-)
test.name: IC50 (growth, competition assay)
condition.details: fluorescent label: DsRed; cefoxitin: subinhibitory
pIC50: −log10 of the molar value.
Give measured pIC50 for each item. Keep answers brief.

compound="CCC(Cc1c(I)cc(I)c(N)c1I)C(=O)O (centres undefined)" value_observed="> 5.01"

Hey, can you go through the list below and give me pIC50 for every item?
1. CC[C@H]1OC(=O)[C@H](C)[C@@H](O[C@H]2C[C@@](C)(OC)[C@@H](O)[C@H](C)O2)[C@H](C)[C@@H](O[C@@H]2O[C@H](C)C[C@H](N(C)C)[C@H]2O)[C@](C)(O)C[C@@H](C)C(=O)[C@H](C)[C@@H](O)[C@]1(C)O [ERYDERM]
2. NC(=O)c1cc[n+](CC2=C(C(=O)[O-])N3C(=O)[C@@H](NC(=O)Cc4cccs4)[C@H]3SC2)cc1
3. CN(C)c1ccc(O)c2c1C[C@H]1C[C@H]3[C@H](N(C)C)C(O)=C(C(N)=O)C(=O)[C@@]3(O)C(O)=C1C2=O [SOLODYN]

Result:
1. > 5.01
2. > 5.01
3. > 5.01

---

Test system: Staphylococcus aureus MW2 delta-mecA (mecA-)
test.name: IC50 (growth, competition assay)
condition.details: fluorescent label: DsRed; cefoxitin: subinhibitory
Where a name gives a salt, the structure may show the parent alone.
recorded.endpoint: IC50

Solved entries:
compound="Cc1cnc(-c2ccccc2C(C)C)nc1NCc1ccc(-n2ccnn2)cc1 [ML323]" recorded_endpoint=IC50 value_observed="< 9.85 µM"
compound="COc1cc([C@@H]2c3cc4c(cc3[C@@H](O[C@@H]3O[C@@H]5CO[C@@H](c6cccs6)O[C@H]5[C@H](O)[C@H]3O)[C@H]3COC(=O)[C@H]23)OCO4)cc(OC)c1O [VUMON]" recorded_endpoint=IC50 value_observed="< 9.85 µM"
compound=CCc1ccc(/C=C2/SC(=S)NC2=O)cc1 recorded_endpoint=IC50 value_observed="< 9.85 µM"
compound="C=C1c2cccc(O)c2C(=O)C2=C(O)[C@]3(O)C(=O)C(C(N)=O)=C(O)[C@@H](N(C)C)[C@@H]3[C@@H](O)[C@H]12 [Methacycline hydrochloride (Physiomycine)]" recorded_endpoint=IC50 value_observed="< 0.498 µM"
compound=OCc1ccc(-c2ccc(-c3ccc(CO)s3)o2)s1 recorded_endpoint=IC50 value_observed="< 9.85 µM"

Hey, can you go through the list below and give me IC50 for every item?
1. CCn1cc(C(=O)O)c(=O)c2ccc(C)nc21 [Nalidixic acid sodium]
2. CC[C@H]1OC(=O)[C@H](C)C(=O)[C@H](C)[C@@H](O[C@@H]2O[C@H](C)C[C@H](N(C)C)[C@H]2O)[C@](C)(OC)C[C@@H](C)C(=O)[C@H](C)[C@H]2N(CCCCn3cnc(-c4cccnc4)c3)C(=O)O[C@]12C [KETEK]
3. CN(C)C(=S)SSC(=S)N(C)C [REZIFILM]
4. O=C1OC(CN2CCOCC2)CN1/N=C/c1ccc([N+](=O)[O-])o1 (stereo not drawn) [FURALTADONE]

Result:
1: 17.2 µM; 2: < 9.85 µM; 3: 18.2 µM; 4: 11.4 µM

Hey, can you go through the list below and give me IC50 for every item?
1. O=c1[nH]cc(F)c(=O)[nH]1 [Adrucil (Fluorouracil)]
2. CC[C@H]1OC(=O)[C@H](C)[C@@H](O[C@H]2C[C@@](C)(OC)[C@@H](O)[C@H](C)O2)[C@H](C)[C@@H](O[C@@H]2O[C@H](C)C[C@H](N(C)C)[C@H]2O)[C@](C)(O)C[C@@H](C)CN(C)[C@H](C)[C@@H](O)[C@]1(C)O [ZITHROMAX]
3. C[C@@H](O)[C@H]1C(=O)N2C(C(=O)O)=C(S[C@@H]3CN[C@H](CNS(N)(=O)=O)C3)[C@H](C)[C@H]12 [Doripenem Hydrate]
4. COc1ccc(NC(=O)c2ccc(-c3ccc(-c4noc(C)n4)cc3C)cc2)cc1N1CCN(C)CC1
5. CCCCCCCCCCCCCCC[C@H](O)[C@H](N)CO (racemic) [DL-erythro-Dihydrosphingosine]
6. CCn1cc(C(=O)O)c(=O)c2cc(F)c(N3CCN(C)CC3)cc21 [PEFLOXACINE MESYLATE]

Result:
1: < 0.498 µM; 2: < 9.85 µM; 3: 137 µM; 4: < 9.85 µM; 5: < 9.85 µM; 6: < 9.85 µM

Hey, can you go through the list below and give me IC50 for every item?
1. CC(=O)O[C@H]1C[C@@]2(C)[C@@H](C[C@@H](O)[C@H]3[C@@]4(C)CC[C@@H](O)[C@@H](C)[C@@H]4CC[C@@]32C)/C1=C(\CCC=C(C)C)C(=O)O [Fusidic acid sodium]
2. CCOC(=O)CCC(=O)O[C@H]1[C@H](O[C@@H]2[C@@H](C)[C@H](O[C@H]3C[C@@](C)(OC)[C@@H](O)[C@H](C)O3)[C@@H](C)C(=O)O[C@H](CC)[C@@](C)(O)[C@H](O)[C@@H](C)C(=O)[C@H](C)C[C@@]2(C)O)O[C@H](C)C[C@@H]1N(C)C [Erythromycin Ethylsuccinate]
3. O=C(Nc1ncc([N+](=O)[O-])s1)c1ccc([N+](=O)[O-])c(Cl)c1

Result:
1: < 9.85 µM; 2: < 9.85 µM; 3: 13.2 µM
